assay: Encapsulation efficiency of lipid nanoparticles, Quant-It RiboGreen RNA Assay; format: physicochemical; conditions: lipid nanoparticle with the cationic lipid, luciferase mRNA
parameter_measured: Encapsulation efficiency (%)
Give the figure together with its unit, number first.

Form: compound = CCCCCCCCCOC(=O)CCCCCCC(CCCCCCC(=O)OCC(CCCCC)CCCCCCC)OC(=O)CCCN(C)C (stereo not shown) [Compound D2, reference compound] ; Encapsulation efficiency (%) = 79.63%

Form: compound = CC/C=C\CCCCCOC(=O)C(C)(C)CCCCCC(CCCCCC(C)(C)C(=O)OCCCCC/C=C\CC)OC(=O)CCN(C)C ; Encapsulation efficiency (%) = 69.51%

Form: compound = CCCCCCCCCSC(=O)C(C)(C)CCCCCC(CCCCCC(C)(C)C(=O)SCCCCCCCCC)OC(=O)CC1CCN(CC)CC1 ; Encapsulation efficiency (%) = 87.11%

Form: compound = CCCCCCCC#CCOC(=O)C(C)(C)CCCCCC(CCCCCC(C)(C)C(=O)OCC(CCCCC)CCCCCCC)OC(=O)CCCN(C)C (stereo not shown) ; Encapsulation efficiency (%) = 89.36%

Form: compound = CCCCCCC(CCCCCC)CCOC(=O)CCC(C)(C)CCCC(CCCC(C)(C)CCC(=O)OCCC(CCCCCC)CCCCCC)OC(=O)CCCN(C)C ; Encapsulation efficiency (%) = 79.88%

Form: compound = CCCCCCCC(CCCCCCC)COC(=O)CCC(C)(C)CCCC(CCCC(C)(C)CCC(=O)OCC(CCCCCCC)CCCCCCC)OC(=O)CCCN(C)C ; Encapsulation efficiency (%) = 57.87%

Form: compound = CCCCCCCCCOC(=O)C(C)(C)CCCCCC(CCCCCC(C)(C)C(=O)OCCCCCCCCC)OC(=O)CCCN(C)C ; Encapsulation efficiency (%) = 71.93%

Form: compound = CCCCCCCCCCOC(=O)C(C)(C)CCCCCC(CCCCCC(C)(C)C(=O)OCCCCCCCCCC)OC(=O)CCCN(C)C ; Encapsulation efficiency (%) = 87.86%

Form: compound = CCCCCCC/C=C\COC(=O)C(C)(C)CCCCCC(CCCCCC(C)(C)C(=O)OC/C=C\CCCCCCC)OC(=O)CCCN(C)C ; Encapsulation efficiency (%) = 81.29%

Form: compound = CCCCCCCCCNC(=O)C(C)(C)CCCCCC(CCCCCC(C)(C)C(=O)NCCCCCCCCC)OC(=O)CCN(C)C ; Encapsulation efficiency (%) = 19.41%

Form: compound = CCCCCCCCCSC(=O)C(C)(C)CCCCCC(CCCCCC(C)(C)C(=O)SCCCCCCCCC)OC(=O)CCCN(C)C ; Encapsulation efficiency (%) = 89.07%

Form: compound = CCCCCCCCOC(=O)C(C)(C)CCCCCC(CCCCCC(C)(C)C(=O)OCCCCCCCC)OC(=O)CCCN(C)C ; Encapsulation efficiency (%) = 67.96%

Form: compound = CCCCCCCCCSC(=O)C(C)(C)CCCCCC(CCCCCC(C)(C)C(=O)SCCCCCCCCC)OC(=O)C1CCN(C)CC1 ; Encapsulation efficiency (%) = 85.65%

Form: compound = CCCCCCCCCOC(=O)CCCCCCC(CCCCCCC(=O)OCCCCCCCCC)OC(=O)CCCN(C)C [Compound D1, reference compound] ; Encapsulation efficiency (%) = 97.08%

Form: compound = CCCCCCCCCOC(=O)C(C)(C)CCCCC(CCCCC(C)(C)C(=O)OCC(CCCCC)CCCCCCC)OC(=O)CCCN(C)C (stereo not shown) ; Encapsulation efficiency (%) = 91.76%

Form: compound = CCCCCCCCCCOC(=O)C(C)(C)CCCCCC(CCCCCC(C)(C)C(=O)OCCCCCCCCCC)OC(=O)CCN(C)C ; Encapsulation efficiency (%) = 91.54%

Form: compound = CCCCCCCCCCOC(=O)C(C)(C)CCCCCC(CCCCCC(C)(C)C(=O)OCCCCCCCCCC)OC(=O)CN1CCOCC1 ; Encapsulation efficiency (%) = 102.99%

Form: compound = CCCCCCCCCCOC(=O)C(C)(C)CCCCCC(CCCCCC(C)(C)C(=O)OCCCCCCCCCC)OC(=O)C1CCN(C)CC1 ; Encapsulation efficiency (%) = 90.69%

Form: compound = CCCCC/C=C\C/C=C\CCCCCCCCC(CCCCCCCC/C=C\C/C=C\CCCCC)OC(=O)CCCN(C)C [DLin-MC3-DMA, reference compound] ; Encapsulation efficiency (%) = 95.62%
